Target: T1, recombinant human IL-4Rα (extracellular domain, tagged) (human, UniProt P24394 26-232)
T1 construct: it is written second here only for want of that; also called hIL-4Rα; not shown: His-tag or other conventionally used tag
Assay: SPR, Biacore T200; antibody (human IgG4) on the sensor chip, human IL-4Rα at 0.625-12.5 nM
The entries below are paired with their reported pKd.
Quick note: pKd means taking -log10 of the concentration in moles per liter.

Example cases with answers are listed next.
binder | pKd
C27-24-56 (antibody, human IgG4, V domains shown) VH: EVQLLESGGGLVQPGGSLRLSCAASGFTLSSYAMHWVRQAPGKGLEYVSGISPTSGSTYYANSVKGRFTISRDNPKNTLFLQMSSLRAEDTAVYYCVRVKVRYRGGMDVWGQGTTVTVSS VL: EIVLTQSPGTLSLSPGERATLSCRASQSVSSAYLAWYQQKPGQAPRLLIYGTSRRATGIPDRFSGSGSGTDFTLTISRLEPEDFAVYYCQLYGASSVTFGQGTKLEIK | 8.73
C27-36-36 (antibody, human IgG4, V domains shown) VH: EVQLLESGGGLVQPGGSLRLSCAASGFTLSSYAMHWVRQAPGKGLEYVSGISPSGVSTYYANSVKGRFTISRDNPKNTLFLQMSSLRAEDTAVYYCVRVKVKYRGGMDVWGQGTTVTVSS VL: EIVLTQSPGTLSLSPGERATLSCRASQNISTAYLAWYQQKPGQAPRLLIYGTSRRATGIPDRFSGSGSGTDFTLTISRLEPEDFAVYYCQLYGATSVTFGQGTKLEIK | 8.59

As a next step, examine the binder that follows.
Measured pKd of C27-33-33 (antibody, human IgG4, V domains shown) VH: EVQLLESGGGLVQPGGSLRLSCAASGFTLSSYAMHWVRQAPGKGLEYVSGISSSGSSTYYANSVKGRFTISRDNPKNTLFLQMSSLRAEDTAVYYCVRVKVAYRGGMDVWGQGTTVTVSS VL: EIVLTQSPGTLSLSPGERATLSCRASQGISSAYLAWYQQKPGQAPRLLIYGTSRRATGIPDRFSGSGSGTDFTLTISRLEPEDFAVYYCQLYGATSVTFGQGTKLEIK : 8.43
